Entry source: patent US20230103444A1

Tested on: HCT116 tumor organoids
Assay: Tumor organoid cytotoxicity (CellTiter-Glo 3D)
Assay type: cell-based, human
Settings: Homo sapiens, HCT-116, 72 h; Table 6; read-out: 3 D Cytotoxicity 72 hr IC50 (μM) HCT116
Procedure: Cell based cytotoxicity dose response and combination studies. […] Plates were then incubated for 3 days before treatment. Cell Line Tumor Organoid Culture. Tumor Organoid Cytotoxicity.
value type: IC50 (µM)
Report only the number, with the unit µM understood.

Example cases with answers are listed next.
Cc1cc(Nc2ccc(NC(=O)c3c[nH]c4ncccc34)cc2)nc(N2CCCC2)n1 [Compound 6.9]    19.7
Cc1cc(Nc2ccc(NC(=O)Cc3cc(Br)cs3)cc2)nc(N2CCCC2)n1 [Compound 6.11]    3.5
Cc1cc(Nc2ccc(NC(=O)Cc3cc(Br)cs3)cc2)nc(N2CCCCC2)n1 [Compound 6.49]    14.7
Cc1cc(Nc2ccc(NC(=O)Cc3cccnc3)cc2)nc(N2CCCC2)n1 [Compound 6.43]    19.1
Cc1cc(NCc2ccc(NC(=O)Cc3cc(Br)cs3)cc2)nc(N2CCNCC2)n1 [Compound 6.57]    10.8

# input Which value of IC50 has been reported for Cc1cc(Nc2ccc(NC(=O)Cc3c[nH]c4cc(Cl)ccc34)cc2)nc(N2CCCC2)n1 [Compound 6.18] in the records?
# output 3

# input Now the compound Cc1cc(NCc2ccc(NC(=O)Cc3cc(Br)cs3)cc2)nc(N2CCN(C)CC2)n1 [Compound 6.44]
# output 14

# input Now the compound Cc1cc(Nc2ccc(NC(=O)Cc3c[nH]c4ccccc34)cc2)nc(N2CCCC2)n1 [Compound 6.5]
# output 2.2

# input Now the compound Cc1cc(Nc2ccc(NC(=O)CCCc3c[nH]c4ccccc34)cc2)nc(N2CCCC2)n1 [Compound 6.7]
# output 17.6

# input Now the compound Cc1cc(Nc2ccc(NC(=O)Cc3cccs3)cc2)nc(N2CCOCC2)n1 [Compound 6.15]
# output 19.7

# input Now the compound Cc1cc(N2CCCCC2)nc(NCc2ccc(NC(=O)Cc3cc(Br)cs3)cc2)n1 [Compound 6.47]
# output 9.3
